This collection of values is drawn from ChEMBL document CHEMBL1147671.

Target: Phenylethanolamine N-methyltransferase (Homo sapiens)
Sequence (P11086 whole entry): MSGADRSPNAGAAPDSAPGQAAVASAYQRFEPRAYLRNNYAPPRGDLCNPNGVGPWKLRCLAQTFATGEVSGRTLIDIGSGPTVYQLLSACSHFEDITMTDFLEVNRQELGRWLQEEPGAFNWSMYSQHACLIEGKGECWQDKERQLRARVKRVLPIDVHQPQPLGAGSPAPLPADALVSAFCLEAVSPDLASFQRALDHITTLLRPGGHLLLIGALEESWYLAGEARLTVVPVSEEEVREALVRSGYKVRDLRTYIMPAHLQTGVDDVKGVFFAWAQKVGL
Property Measured: pKi
In simple prose, pKi is minus the logarithm base ten of a concentration in moles per litre.

Prompt: // query pKi value for entry O=[N+]([O-])c1ccc(NS(=O)(=O)c2ccc3c(c2)CNC(C(F)(F)F)C3)cc1 (racemic)
Response: 3.96

---

Catalogue of Ki values
target: Adrenergic receptor alpha-2 (Rattus norvegicus, UniProt P22086+P19328+P22909); experiment: Displacement of [3H]clonidine from alpha-2 adrenergic receptor in Sprague-Dawley rat cortex

Examples with their reported Ki follow.
O=S(=O)(NCC(F)(F)F)c1ccc2c(c1)CNC(C(F)F)C2 (racemic)	> 1000 µM
CCCNS(=O)(=O)c1ccc2c(c1)CNC(C(F)F)C2 (racemic)	> 1000 µM
FC(F)C1Cc2ccc(I)cc2CN1 (racemic)	> 1000 µM
CS(=O)(=O)c1ccc2c(c1)CNC(C(F)F)C2 (racemic)	2500 µM
FC(F)C1Cc2ccc(Br)cc2CN1 (racemic)	230 µM

Prompt: Give recorded Ki with Adrenergic receptor alpha-2 (Rattus norvegicus, UniProt P22086+P19328+P22909) for the following compound: FC(F)C1Cc2ccc(C(F)(F)F)cc2CN1 (racemic)
Response: 190 µM

Prompt: Give recorded Ki with Adrenergic receptor alpha-2 (Rattus norvegicus, UniProt P22086+P19328+P22909) for the following compound: O=[N+]([O-])c1ccc(NS(=O)(=O)c2ccc3c(c2)CNC(C(F)(F)F)C3)cc1 (racemic)
Response: > 1000 µM

Prompt: Give recorded Ki with Adrenergic receptor alpha-2 (Rattus norvegicus, UniProt P22086+P19328+P22909) for the following compound: O=[N+]([O-])c1ccc2c(c1)CNC(C(F)F)C2 (racemic)
Response: > 1000 µM

Prompt: Give recorded Ki with Adrenergic receptor alpha-2 (Rattus norvegicus, UniProt P22086+P19328+P22909) for the following compound: N#Cc1ccc2c(c1)CNC(C(F)F)C2 (racemic)
Response: > 1000 µM

Prompt: Give recorded Ki with Adrenergic receptor alpha-2 (Rattus norvegicus, UniProt P22086+P19328+P22909) for the following compound: O=S(=O)(NCC(F)(F)F)c1ccc2c(c1)CNC(C(F)(F)F)C2 (racemic)
Response: > 1000 µM

Prompt: Give recorded Ki with Adrenergic receptor alpha-2 (Rattus norvegicus, UniProt P22086+P19328+P22909) for the following compound: O=S(=O)(Nc1ccc(Cl)cc1)c1ccc2c(c1)CNC(C(F)F)C2 (racemic)
Response: > 1000 µM

Prompt: Give recorded Ki with Adrenergic receptor alpha-2 (Rattus norvegicus, UniProt P22086+P19328+P22909) for the following compound: COCCCNS(=O)(=O)c1ccc2c(c1)CNC(C(F)(F)F)C2 (racemic)
Response: > 1000 µM

Prompt: Give recorded Ki with Adrenergic receptor alpha-2 (Rattus norvegicus, UniProt P22086+P19328+P22909) for the following compound: CCNS(=O)(=O)c1ccc2c(c1)CNC(C(F)F)C2 (racemic)
Response: > 1000 µM

Prompt: Give recorded Ki with Adrenergic receptor alpha-2 (Rattus norvegicus, UniProt P22086+P19328+P22909) for the following compound: NS(=O)(=O)c1ccc2c(c1)CNC(C(F)F)C2 (centres undefined)
Response: > 1000 µM

Prompt: Give recorded Ki with Adrenergic receptor alpha-2 (Rattus norvegicus, UniProt P22086+P19328+P22909) for the following compound: O=[N+]([O-])c1ccc(NS(=O)(=O)c2ccc3c(c2)CNC(C(F)F)C3)cc1 (racemic)
Response: > 1000 µM

Prompt: Give recorded Ki with Adrenergic receptor alpha-2 (Rattus norvegicus, UniProt P22086+P19328+P22909) for the following compound: FC(F)C1Cc2ccccc2CN1 (racemic)
Response: 150 µM

Prompt: Give recorded Ki with Adrenergic receptor alpha-2 (Rattus norvegicus, UniProt P22086+P19328+P22909) for the following compound: CCCCNS(=O)(=O)c1ccc2c(c1)CNC(C(F)F)C2 (racemic)
Response: > 1000 µM

Prompt: Give recorded Ki with Adrenergic receptor alpha-2 (Rattus norvegicus, UniProt P22086+P19328+P22909) for the following compound: COCCCNS(=O)(=O)c1ccc2c(c1)CNC(C(F)F)C2 (racemic)
Response: > 1000 µM

Prompt: Give recorded Ki with Adrenergic receptor alpha-2 (Rattus norvegicus, UniProt P22086+P19328+P22909) for the following compound: O=S(=O)(Nc1ccc(Cl)cc1)c1ccc2c(c1)CNC(C(F)(F)F)C2 (racemic)
Response: > 1000 µM
